Tested on: Streptococcus pneumoniae ¼
Test: MIC, standard microdilution technique
Type: cell-based
Details: read-out: minimum inhibitory concentration (MIC), Strain F
Reported MIC values follow for various molecules
Metric Name: MIC (µg/mL)

1) CC[C@H]1OC(=O)[C@H](C)C(=O)[C@H](C)[C@@H](O[C@@H]2O[C@H](C)C[C@H](N(C)C)[C@H]2O)[C@](C)(OC)C[C@@H](C)C(=O)[C@H](C)[C@H]2[C@@H](SCCNC(=O)c3cccnc3)C(=O)O[C@@]21C (single isomer, unassigned) | 2
2) CC[C@H]1OC(=O)[C@@](C)(F)C(=O)[C@H](C)[C@@H](O[C@@H]2O[C@H](C)C[C@H](N(C)C)[C@H]2O)[C@](C)(OC)C[C@@H](C)C(=O)[C@H](C)[C@H]2[C@@H](SCc3ccc(OC)cc3)C(=O)O[C@@]21C (single isomer, unassigned) | 8

---

Tested on: Streptococcus pneumoniae l/l
Test: MIC, standard microdilution technique
Format: cell-based
Conditions: read-out: minimum inhibitory concentration (MIC), Strain E
Recorded measurements of MIC, one per entry
Metric Name: MIC

1) CC[C@H]1OC(=O)[C@H](C)C(=O)[C@H](C)[C@@H](O[C@@H]2O[C@H](C)C[C@H](N(C)C)[C@H]2O)[C@](C)(OC)C[C@@H](C)C(=O)[C@H](C)[C@H]2[C@@H](SCCNC(=O)c3cnc4ccccc4c3)C(=O)O[C@@]21C (single isomer, unassigned) | ≤ 0.06 µg/mL
2) CC[C@H]1OC(=O)[C@H](C)C(=O)[C@H](C)[C@@H](O[C@@H]2O[C@H](C)C[C@H](N(C)C)[C@H]2O)[C@](C)(OC)C[C@@H](C)C(=O)[C@H](C)[C@H]2[C@@H](SCCNC(=O)c3cccnc3)C(=O)O[C@@]21C (single isomer, unassigned) | 0.125 µg/mL
3) CC[C@H]1OC(=O)[C@H](C)[C@@H](O[C@H]2C[C@@](C)(OC)[C@@H](O)[C@H](C)O2)[C@H](C)[C@@H](O[C@@H]2O[C@H](C)C[C@H](N(C)C)[C@H]2O)[C@](C)(OC)C[C@@H](C)C(=O)[C@H](C)[C@@H](O)[C@]1(C)O [Clarithromycin, reference compound] | ≤ 0.06 µg/mL
4) CC[C@H]1OC(=O)[C@H](C)[C@@H](O[C@H]2C[C@@](C)(OC)[C@@H](O)[C@H](C)O2)[C@H](C)[C@@H](O[C@@H]2O[C@H](C)C[C@H](N(C)C)[C@H]2O)[C@](C)(O)C[C@@H](C)C(=O)[C@H](C)[C@@H](O)[C@]1(C)O [Erythromycin, reference compound] | ≤ 0.06 µg/mL
5) CC[C@H]1OC(=O)[C@H](C)C(=O)[C@H](C)[C@@H](O[C@@H]2O[C@H](C)C[C@H](N(C)C)[C@H]2O)[C@](C)(OC)C[C@@H](C)C(=O)[C@H](C)[C@H]2[C@@H](SCCNc3ccc(C#N)cn3)C(=O)O[C@@]21C (single isomer, unassigned) | ≤ 0.06 µg/mL
6) CC[C@H]1OC(=O)[C@@](C)(F)C(=O)[C@H](C)[C@@H](O[C@@H]2O[C@H](C)C[C@H](N(C)C)[C@H]2O)[C@](C)(OC)C[C@@H](C)C(=O)[C@H](C)[C@H]2[C@@H](SCCn3cnc(-c4cccnc4)n3)C(=O)O[C@@]21C (single isomer, unassigned) | ≤ 0.06 µg/mL
7) CC[C@H]1OC(=O)[C@@](C)(F)C(=O)[C@H](C)[C@@H](O[C@@H]2O[C@H](C)C[C@H](N(C)C)[C@H]2O)[C@](C)(OC)C[C@@H](C)C(=O)[C@H](C)[C@H]2[C@@H](SCc3ccc(OC)cc3)C(=O)O[C@@]21C (single isomer, unassigned) | 0.5 µg/mL

---

System: Streptococcus pneumoniae ¼
Assay: MIC, standard microdilution technique
Type: cell-based
Settings: read-out: minimum inhibitory concentration (MIC), Strain F
Items are presented alongside their recorded MIC.
Metric Name: MIC (µg/mL)

1. CC[C@H]1OC(=O)[C@H](C)C(=O)[C@H](C)[C@@H](O[C@@H]2O[C@H](C)C[C@H](N(C)C)[C@H]2O)[C@](C)(OC)C[C@@H](C)C(=O)[C@H](C)[C@H]2[C@@H](SCCNC(=O)c3cnc4ccccc4c3)C(=O)O[C@@]21C (single isomer, unassigned) | 8
2. CC[C@H]1OC(=O)[C@H](C)[C@@H](O[C@H]2C[C@@](C)(OC)[C@@H](O)[C@H](C)O2)[C@H](C)[C@@H](O[C@@H]2O[C@H](C)C[C@H](N(C)C)[C@H]2O)[C@](C)(OC)C[C@@H](C)C(=O)[C@H](C)[C@@H](O)[C@]1(C)O [Clarithromycin, reference compound] | 32

Where do the numbers come from? From patent US6995143B2.
